Tested on: A2780
Assay: Cytotoxicity against human A2780 cells after 96 hrs by SRB assay
Type: functional, cell-based
Conditions: A2780, 96 h
measured.metric: pEC50
The value called pEC50 is obtained by taking minus log10 of the concentration in mol/L.

CC(=O)O[C@H]1CC[C@]2(C)[C@H]3CC[C@@H]4[C@H]5[C@H](/C(C)=N/O)CC[C@]5(C(=O)OCc5ccccc5)CC[C@@]4(C)[C@]3(C)CC[C@H]2C1(C)C; 5.21

Proceed to the following item.
Could you tell me which pEC50 is on file for CC(=O)O[C@H]1CC[C@]2(C)[C@H]3CC[C@@H]4[C@H]5[C@H](C(C)=O)CC[C@]5(C(=O)NCCN5CCCC5)CC[C@@]4(C)[C@]3(C)CC[C@H]2C1(C)C ?
5.37

###

# pEC50 per entry
Tested on: MCF7
Assay: Cytotoxicity against human MCF7 cells after 96 hrs by SRB assay
Type: functional, cell-based
Conditions: MCF7, 96 h
# pEC50: negative log10 of molar concentration; output just the value

CC(=O)[C@@H]1CC[C@]2(C(=O)OCc3ccccc3)CC[C@]3(C)[C@H](CC[C@@H]4[C@@]5(C)CC[C@H](O)C(C)(C)[C@@H]5CC[C@]43C)[C@@H]12; 5.05

Query compound follows.
Lab note: need pEC50 for COC(=O)[C@]12CC[C@@H]([C@@H](C)NC(C)=O)[C@@H]1[C@H]1CC[C@@H]3[C@@]4(C)CC[C@H](OC(C)=O)C(C)(C)[C@@H]4CC[C@@]3(C)[C@]1(C)CC2 on MCF7, anyone have it?
4.67

###

Tested on: MCF7
Assay: Cytotoxicity against human MCF7 cells after 96 hrs by SRB assay
Type: functional, cell-based
Details: MCF7, 96 h
measured.metric: EC50 (µM)
Give the quantity in µM, number only.

CC(=O)O[C@H]1CC[C@]2(C)[C@H]3CC[C@@H]4[C@H]5[C@H]([C@@H](C)N)CC[C@]5(C(=O)OCc5ccccc5)CC[C@@]4(C)[C@]3(C)CC[C@H]2C1(C)C; 3

// next entry
Would you mind telling me what EC50 value was observed for COC(=O)[C@]12CC[C@@H]([C@@H](C)N)[C@@H]1[C@H]1CC[C@@H]3[C@@]4(C)CC[C@H](OC(C)=O)C(C)(C)[C@@H]4CC[C@@]3(C)[C@]1(C)CC2 ?
5.1

###

Listed next: entries and their corresponding EC50.
Test system: MCF7
Assay: Cytotoxicity against human MCF7 cells after 96 hrs by SRB assay
Type: functional, cell-based
Conditions: MCF7, 96 h
Express it in µM; write the number only.

Solved entries:
COC(=O)[C@]12CC[C@@H]([C@H](C)NC(C)=O)[C@@H]1[C@H]1CC[C@@H]3[C@@]4(C)CC[C@H](OC(C)=O)C(C)(C)[C@@H]4CC[C@@]3(C)[C@]1(C)CC2; 17.9
CC(=O)[C@@H]1CC[C@]2(C(=O)NCCN(C)C)CC[C@]3(C)[C@H](CC[C@@H]4[C@@]5(C)CC[C@H](O)C(C)(C)[C@@H]5CC[C@]43C)[C@@H]12; 3.2

Query: EC50; subject: COC(=O)[C@]12CC[C@@H](NC(C)=O)[C@@H]1[C@H]1CC[C@@H]3[C@@]4(C)CC[C@H](OC(C)=O)C(C)(C)[C@@H]4CC[C@@]3(C)[C@]1(C)CC2
10

###

System: MCF7
Experiment: Cytotoxicity against human MCF7 cells after 96 hrs by SRB assay
Assay type: functional, cell-based
Conditions: MCF7, 96 h
measured.metric: pEC50
Bear in mind: pEC50 is minus log10 of a mol/L concentration; give just that figure.

Answered examples (2):
CC(=O)O[C@H]1CC[C@]2(C)[C@H]3CC[C@@H]4[C@H]5[C@H](C(C)=O)CC[C@]5(C(=O)NCCN5CCCC5)CC[C@@]4(C)[C@]3(C)CC[C@H]2C1(C)C; 5.70
CC(=O)[C@@H]1CC[C@]2(C(=O)O)CC[C@]3(C)[C@H](CC[C@@H]4[C@@]5(C)CC[C@H](O)C(C)(C)[C@@H]5CC[C@]43C)[C@@H]12 [PLATANIC ACID]; 4.47

Below: the item to evaluate.
What does the record list as pEC50 for CC(=O)O[C@H]1CC[C@]2(C)[C@H]3CC[C@@H]4[C@H]5[C@H]([C@H](C)N)CC[C@]5(C(=O)OCc5ccccc5)CC[C@@]4(C)[C@]3(C)CC[C@H]2C1(C)C ?
5.89

###

System: A2780
Experiment: Cytotoxicity against human A2780 cells after 96 hrs by SRB assay
Format: functional, cell-based
Conditions: A2780, 96 h
Known pEC50 of a selection of compounds
pEC50 here: minus log base 10 of the concentration, concentration in moles per litre.

Take a look at these entries with their results.
CC(=O)[C@@H]1CC[C@]2(C(=O)NCCN(C)C)CC[C@]3(C)[C@H](CC[C@@H]4[C@@]5(C)CC[C@H](O)C(C)(C)[C@@H]5CC[C@]43C)[C@@H]12; 5.40
CC(=O)[C@@H]1CC[C@]2(C(=O)OCc3ccccc3)CC[C@]3(C)[C@H](CC[C@@H]4[C@@]5(C)CC[C@H](O)C(C)(C)[C@@H]5CC[C@]43C)[C@@H]12; 4.80
CN[C@@H]1C[C@H]2O[C@@](C)([C@@H]1OC)n1c3ccccc3c3c4c(c5c6ccccc6n2c5c31)C(=O)NC4; 6.92

Requested read-out: pEC50. Entry: COC(=O)[C@]12CC[C@@H](NC(C)=O)[C@@H]1[C@H]1CC[C@@H]3[C@@]4(C)CC[C@H](OC(C)=O)C(C)(C)[C@@H]4CC[C@@]3(C)[C@]1(C)CC2
4.66

###

Test system: A549
Test: Cytotoxicity against human A549 cells after 96 hrs by SRB assay
Type: functional, cell-based
Conditions: A549, 96 h
EC50 vs 9 µM: less than gives Met; not less than gives Not met.

See these solved cases before continuing.
COC(=O)[C@]12CC[C@@H]([C@H](C)NC(C)=O)[C@@H]1[C@H]1CC[C@@H]3[C@@]4(C)CC[C@H](OC(C)=O)C(C)(C)[C@@H]4CC[C@@]3(C)[C@]1(C)CC2; Not met
CC(=O)O[C@H]1CC[C@]2(C)[C@H]3CC[C@@H]4[C@H]5[C@H](C(C)=O)CC[C@]5(C(=O)NCCN)CC[C@@]4(C)[C@]3(C)CC[C@H]2C1(C)C; Met
CC(=O)[C@@H]1CC[C@]2(C(=O)OCc3ccccc3)CC[C@]3(C)[C@H](CC[C@@H]4[C@@]5(C)CCC(=O)C(C)(C)[C@@H]5CC[C@]43C)[C@@H]12; Not met
CC(=O)O[C@H]1CC[C@]2(C)[C@H]3CC[C@@H]4[C@H]5[C@H](C(C)=O)CC[C@]5(C(=O)O)CC[C@@]4(C)[C@]3(C)CC[C@H]2C1(C)C; Not met
COC(=O)[C@]12CC[C@@H](C(C)=O)[C@@H]1[C@H]1CC[C@@H]3[C@@]4(C)CC[C@H](O)C(C)(C)[C@@H]4CC[C@@]3(C)[C@]1(C)CC2; Not met
CC(=O)O[C@H]1CC[C@]2(C)[C@H]3CC[C@@H]4[C@H]5[C@H]([C@@H](C)N)CC[C@]5(C(=O)OCc5ccccc5)CC[C@@]4(C)[C@]3(C)CC[C@H]2C1(C)C; Met

Strictly below 9 µM in EC50? COC(=O)[C@]12CC[C@@H]([C@@H](C)NC(C)=O)[C@@H]1[C@H]1CC[C@@H]3[C@@]4(C)CC[C@H](OC(C)=O)C(C)(C)[C@@H]4CC[C@@]3(C)[C@]1(C)CC2
Not met

Just wondering, is EC50 of CC(=O)[C@@H]1CC[C@]2(C(=O)OCc3ccccc3)CC[C@]3(C)[C@H](CC[C@@H]4[C@@]5(C)CC[C@H](O)C(C)(C)[C@@H]5CC[C@]43C)[C@@H]12 below 9 µM?
Not met

Strictly below 9 µM in EC50? CC(=O)O[C@H]1CC[C@]2(C)[C@H]3CC[C@@H]4[C@H]5[C@H]([C@@H](C)N)CC[C@]5(C(=O)O)CC[C@@]4(C)[C@]3(C)CC[C@H]2C1(C)C
Not met

###

Tested on: HT-29
Assay: cells
Conditions: Homo sapiens, HT-29, 96 h
Description: Cytotoxicity against human HT-29 cells after 96 hrs by SRB assay
# key: entry, value: EC50
The figure you give is taken to be in µM; do not add the unit.

Observe how each entry below is paired with its result.
COC(=O)[C@]12CC[C@@H](/C(C)=N/O)[C@@H]1[C@H]1CC[C@@H]3[C@@]4(C)CC[C@H](OC(C)=O)C(C)(C)[C@@H]4CC[C@@]3(C)[C@]1(C)CC2; 14.4
CN[C@@H]1C[C@H]2O[C@@](C)([C@@H]1OC)n1c3ccccc3c3c4c(c5c6ccccc6n2c5c31)C(=O)NC4 [STAUROSPORINE]; 0.15
COC(=O)[C@]12CC[C@@H](/C(C)=N\O)[C@@H]1[C@H]1CC[C@@H]3[C@@]4(C)CC[C@H](OC(C)=O)C(C)(C)[C@@H]4CC[C@@]3(C)[C@]1(C)CC2; 13
COC(=O)[C@]12CC[C@@H](/C(C)=N/OC(C)=O)[C@@H]1[C@H]1CC[C@@H]3[C@@]4(C)CC[C@H](OC(C)=O)C(C)(C)[C@@H]4CC[C@@]3(C)[C@]1(C)CC2; 23.8
CC(=O)[C@@H]1CC[C@]2(C(=O)OCc3ccccc3)CC[C@]3(C)[C@H](CC[C@@H]4[C@@]5(C)CC[C@H](O)C(C)(C)[C@@H]5CC[C@]43C)[C@@H]12; 10.1

Identify the measured EC50 of CC(=O)O[C@H]1CC[C@]2(C)[C@H]3CC[C@@H]4[C@H]5[C@H](/C(C)=N/O)CC[C@]5(C(=O)OCc5ccccc5)CC[C@@]4(C)[C@]3(C)CC[C@H]2C1(C)C for HT-29.
12.3

Give HT-29 EC50 for CC(=O)[C@@H]1CC[C@]2(C(=O)NCCN)CC[C@]3(C)[C@H](CC[C@@H]4[C@@]5(C)CC[C@H](O)C(C)(C)[C@@H]5CC[C@]43C)[C@@H]12
2.3

Under HT-29: EC50 value of CC(=O)[C@@H]1CC[C@]2(C(=O)OCc3ccccc3)CC[C@]3(C)[C@H](CC[C@@H]4[C@@]5(C)CC[C@@H](N)C(C)(C)[C@@H]5CC[C@]43C)[C@@H]12 ?
2.4

For the record COC(=O)[C@]12CC[C@@H]([C@@H](C)N)[C@@H]1[C@H]1CC[C@@H]3[C@@]4(C)CC[C@H](OC(C)=O)C(C)(C)[C@@H]4CC[C@@]3(C)[C@]1(C)CC2 , what value of EC50 is listed for HT-29?
6.3
